Listing of recorded growth inhibition by entry.
assay: NCI Yeast Anticancer Drug Screen. Data for the mlh1 rad18 strain (AID 175); settings: S. cerevisiae mlh1 rad18 strain growth inhibition; at 5.0 µM (retest, dose inferred, filed as 0.5); active compounds read high
About 79,000 compounds went through this panel and 15% of them were active in at least one assay; those are over-represented in the sample as a whole.
The reply should be a number in %, with the unit left off.

Previously resolved entries follow.
Given C[C@]12CC[C@H](O)CC1=CC[C@@H]1C2CC[C@]2(C)NC(=O)CCC12 (stereo not given in full) , respond with its growth inhibition.
-3

Given O=C(c1ccc(Cl)cc1)C1OC12C(=O)Nc1c(Cl)cc(Cl)cc12 (stereo not given) , respond with its growth inhibition.
4

Given `CC(C)(c1ccc(OC#N)cc1)c1ccc(OC#N)cc1` , respond with its growth inhibition.
-14

Given CCCCC(CCc1ccccc1[N+](=O)[O-])(C(C)=O)C(=O)OCC (stereo not given) , respond with its growth inhibition.
5

With those in mind, consider the next molecule.
Given `CO/N=C/c1cc(NC(=S)c2ccoc2C)ccc1Cl` , respond with its growth inhibition.
-23

---

experiment: NCI Yeast Anticancer Drug Screen. Data for the mec2-1 strain (AID 157); conditions: S. cerevisiae mec2-1 strain, at 50.0 µM, active compounds read high
Compounds without any hit were thinned out: in the full panel of roughly 79,000, 15% have a hit.
Reported growth inhibition maps to class as: low bin (below 30%), mid bin (30% to below 80%), high bin (80% or more)

The following compounds have reported results that may help.
Category of `CCCCCCCCCCCCCCCCCCNC(=S)/N=C/c1c(O)cc(C)oc1=O` :
low bin

Category of `C[n+]1c(-c2cccc(OCCCCCCCCCCOc3cccc(-c4c5cc(N)ccc5c5ccc(N)cc5[n+]4C)c3)c2)c2cc(N)ccc2c2ccc(N)cc21` :
high bin

Category of `CCSc1nc2ccc(N3C(=O)C=CC3=O)cc2s1` :
high bin

Category of CCCCCCCCCCCCOP(=O)(N1CC1(C)C)N1CC1(C)C (centres undefined) :
mid bin

Category of `C[P+](c1ccccc1)(c1ccc(Cl)cc1)c1ccc(Cl)cc1` :
low bin

Category of CC1CCCC(C)C1=O (centres undefined) :
low bin

Category of CCCC(CC)c1cc(O)c(O)cc1C(CC)CCC (centres undefined) :
mid bin

Category of `Cc1ccc(NC(=O)CCC(=O)CC(=O)C(C)(C)C)cc1C` :
low bin

More entries:
Category of `COc1ccc(C(=O)c2cc(Cl)ccc2N)cc1` :
high bin

Category of `COC(=O)c1nc(Cl)nc(Cl)c1N` :
high bin

Category of `O=C(O)/C=C/C(=O)c1ccccc1` :
mid bin

Category of `Nc1ccc(CCCCCc2ccc(N)cc2)cc1` :
high bin

---

assay: NCI Yeast Anticancer Drug Screen. Data for the sgs1 mgt1 strain (AID 161);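 note: 0% = growth of cultures given vehicle only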; conditions: S. cerevisiae sgs1 mgt1 strain, at 50.0 µM (retest, dose inferred, filed as 5.0), active compounds read high
About 79,000 compounds went through this panel and 15% of them were active in at least one assay; those are over-represented in the sample as a whole. Calls of active or inactive are those of the source. Rule as the data show it: active = growth inhibition above about 70%; inactive = the rest.
Quantity: growth inhibition

Given `O=S1(=O)c2ccccc2C(=NO)c2ccccc21` , respond with its growth inhibition.
-21% (inactive)

Given CC(Nc1ccc(Cl)c(Cl)c1)c1ccncc1 (stereo unspecified) , respond with its growth inhibition.
98% (active)

Given c1ccc2c(c1)cc(C1NCCc3[nH]cnc31)c1ccccc12 (stereo unspecified) , respond with its growth inhibition.
82% (active)

Given O=C(CCCN1CCN2Cc3[nH]c4ccccc4c3CC2C1)c1ccc(F)cc1 (stereo unspecified) , respond with its growth inhibition.
92% (active)

Given `CC(CCN)(CCN)[N+](=O)[O-]` , respond with its growth inhibition.
27% (inactive)

More entries:
Given O=C(O)C(Br)C(Br)C(=O)Nc1ccc(Cl)c(Cl)c1 (stereo unspecified) , respond with its growth inhibition.
99% (active)

Given `CC(C)(C)OC(=O)Nc1cccc(Cl)c1` , respond with its growth inhibition.
7% (inactive)

Given Nc1ncnc2c1ncn2CC(O)CN(CCO)CCO (stereo unspecified) (tested in a mixture with another compound) , respond with its growth inhibition.
-3% (inactive)

Given `O=C1OC2(CCN(Cc3ccccc3)CC2)C(=O)N1c1cccc(Cl)c1` , respond with its growth inhibition.
58% (inactive)

Given `Cc1c(N=Nc2ccc(Br)cc2)c(-c2ccccc2)nn1C(=S)S` , respond with its growth inhibition.
45% (inactive)

Given `CCOC(=O)CC(=O)/C=C/c1ccncc1` , respond with its growth inhibition.
-6% (inactive)

Given O=C(O)C1C(C(=O)O)C2C(=O)C=CC1N2Cc1ccccc1 (stereo unspecified) , respond with its growth inhibition.
65% (inactive)

Given `CCNC(=O)NNc1ncnc2c1c(-c1ccc(Cl)cc1)cn2-c1ccc(C)cc1` , respond with its growth inhibition.
99% (active)

Given `FC(F)(F)c1nc2cc(SSc3cc4nc(C(F)(F)F)[nH]c4cc3Cl)c(Cl)cc2[nH]1` , respond with its growth inhibition.
87% (active)

Given `O=C(CC(=O)c1ccccc1)CC(=O)c1ccccc1Br` , respond with its growth inhibition.
93% (active)

Given `Cc1ncc(Br)c(C(=O)O)n1` , respond with its growth inhibition.
-3% (inactive)

---

test: NCI Yeast Anticancer Drug Screen. Data for the rad50 strain (AID 155);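 note: 0% = growth of vehicle-only cultures of the same strain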; details: S. cerevisiae rad50 strain growth inhibition; at 50.0 µM (retest, dose inferred, filed as 5.0); active compounds read high
The panel holds about 79,000 compounds, 15% with a hit somewhere; the sample as a whole holds those more often.
Quantity: growth inhibition (%)
The reply should be a number in %, with the unit left off.

Given `Cc1ccc(S(=O)(=O)N/N=C/c2oc(-c3cccc([N+](=O)[O-])c3)c(-c3cccc([N+](=O)[O-])c3)c2[N+](=O)[O-])cc1` , respond with its growth inhibition.
56

Given `O=C1NN(C2=NNC3(C(=O)N2)c2ccccc2-c2ccccc23)C(c2ccccc2)=N/C1=C/c1ccc(Cl)cc1` , respond with its growth inhibition.
-5

Given `C[P+](c1ccccc1)(c1ccc(Cl)cc1)c1ccc(Cl)cc1` , respond with its growth inhibition.
72

---

Listing of recorded growth inhibition by entry.
assay: NCI Yeast Anticancer Drug Screen. Data for the cln2 rad14 strain (AID 165);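 note: 0% = growth equal to vehicle treated cultures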; conditions: S. cerevisiae cln2 rad14 strain, at 50.0 µM, active compounds read high
Compounds without any hit were thinned out: in the full panel of roughly 79,000, 15% have a hit.
The reply should be a number in %, with the unit left off.

Previously resolved entries follow.
Given CC1CN(C(=S)NNC(C)c2cc3ccccc3cn2)CC(C)O1 (stereo unspecified) , respond with its growth inhibition.
90

Given `O=C(O)c1ccc([N+](=O)[O-])o1` , respond with its growth inhibition.
17.6

Given `O=[N+]([O-])c1ccc(-c2nc3c(o2)CCC3)cc1` , respond with its growth inhibition.
25.1

Given O=C(O)CC(NC(=O)CP(=O)(O)O)C(=O)O.[NH-]C1CCCCC1[NH-].[Pt+2] (stereo unspecified) , respond with its growth inhibition.
20.8

More entries:
Given O=C(c1ccc(Cl)cc1)C1OC12C(=O)Nc1c(Cl)cc(Cl)cc12 (stereo unspecified) , respond with its growth inhibition.
99.1

Given BrC(Br)=C1C(=C(Br)Br)C(Br)C1Br (stereo unspecified) , respond with its growth inhibition.
55

Given `CC(=O)CC(C)=NCCN=C(C)CC(C)=O.[Pd]` , respond with its growth inhibition.
53

Given `COc1ccc2c(c1)CC/C(=C\c1ccc(OCCN(C)C)cc1)C2=O` , respond with its growth inhibition.
15.4

Given `O=C1CC2(CCCC2)C(=O)N1c1ccc(N2C(=O)CC3(CCCC3)C2=O)cc1` , respond with its growth inhibition.
44.1

Given CC(Nc1ccc(Cl)c(Cl)c1)c1ccncc1 (stereo unspecified) , respond with its growth inhibition.
83.9

Given `COc1ccc2c(c1)CC[C@@H]1[C@@H]2CC[C@]2(C)/C(=N/OCCN3CCCC3)CC[C@@H]12` , respond with its growth inhibition.
89.7

Given `OCCc1ccccc1C(c1ccccc1)c1ccccc1` , respond with its growth inhibition.
98.8

Given `O=c1c2ccccc2nc(-c2ccccc2)n1NC(=S)Nc1ccc(Cl)cc1[N+](=O)[O-]` , respond with its growth inhibition.
-29.4

Given `Clc1ccc2ns[s+]c2c1` , respond with its growth inhibition.
47.8

Given O=C1C2=C(C(=O)c3cnccc31)C1C=CC2CC1 (stereo unspecified) , respond with its growth inhibition.
15.8

Given `O=C1c2cccc3cc4ccccc4c(c23)C(=O)N1CCCNCCNCCCN1C(=O)c2cccc3cc4ccccc4c(c23)C1=O` , respond with its growth inhibition.
88

Given NC(C(=O)O)C1=CCCCCC1 (stereo unspecified) , respond with its growth inhibition.
-6.65

---

Test: NCI Yeast Anticancer Drug Screen. Data for the mlh1 rad18 strain (AID 175)
Settings: S. cerevisiae mlh1 rad18 strain growth inhibition; at 50.0 µM (retest, dose inferred, filed as 5.0)
Experimental: Growth inhibition of yeast strains with defined genetic alterations is measured as a screen for potential anti-cancer activity. Selected strains with alterations in DNA damage repair or cell cycle control were exposed to compounds and growth inhibition was measured relative to vehicle treated controls. The strain used in this assay is mlh1 rad18
The panel holds about 79,000 compounds, 15% with a hit somewhere; the sample as a whole holds those more often. The source made the active and inactive calls. Rule as the data show it: active = growth inhibition above about 70%; inactive = the rest.
Please answer using one outcome listed in true for active, false for inactive

The following molecules have reported results that may help.
Record request — test call for `CCCCCCCCCCNC(=O)CBr`
true

Record request — test call for `O=S(=O)(O)CNc1cc(Cl)cc(Cl)c1`
false

More entries:
Record request — test call for CN=S(=O)(OCCCCOS(=O)(=NC)c1ccccc1)c1ccccc1 (configuration not stated)
false

Record request — test call for `CCC1=C(c2ccc(OC(C)=O)cc2)Cc2cc(OC(C)=O)ccc21`
true

Record request — test call for `CC(=O)OCc1cc2ccccc2nc1C(Br)(Br)Br`
true

Record request — test call for `c1cc[c]([Ge]([O]c2cccc3cccnc23)([c]2ccccc2)[c]2ccccc2)cc1`
false

Record request — test call for CCOC(=O)C1=NNC(C(=O)c2ccccc2)C1c1ccccc1 (configuration not stated)
true

Record request — test call for `N#Cc1c2c(c(N=[N+]=[N-])n3c1nc1ccccc13)CCCC2`
true

Record request — test call for `O=[N+]([O-])c1ccc(/C(=C\c2ccccc2)Cn2ccnc2)cc1`
true

Record request — test call for COC1OC(CN=[N+]=[N-])C(OC(=O)c2ccccc2)C(OC(C)=O)C1OC(C)=O (configuration not stated)
false

Record request — test call for `N#C/C=C/C=C/C#N`
false

Record request — test call for `O=C(Nc1ccccc1Cl)c1cccnc1`
false

Record request — test call for `NC(=S)NNC(=O)c1cccnc1`
false

Record request — test call for `O=C(NCC#CCO)C(F)(F)F`
false

Record request — test call for C=C1C(=O)OC(CCCCCCCCCCCCC)C1C(=O)O (configuration not stated)
true

Record request — test call for `COc1ccc(-c2nc3c(C(=O)NCCN(C)C)cccc3c3ccccc23)cc1`
false

Record request — test call for NC(=O)c1ncn(C2OC(CO)C(O)C2O)c1O (configuration not stated)
false
